- Tested on: A498 renal
- measurement-notes: NCI tumour cell line growth inhibition, 48 h
experimental-readout: TGI

Worked set:
>>> endpoint_result("Cc1ccc(S(=O)(=O)/N=C(\\[O-])C2=C(c3ccccc3)NN(C)c3nc4cccc[n+]4nc32)cc1")
"> 100 µM"
>>> endpoint_result("Cc1ccc2cccc3c2c1CC1(C3=O)S(=O)(=O)OCCOS1(=O)=O")
"> 100 µM"
>>> endpoint_result("O=C1CCCCC[C@]12SC[C@H]1CON=C12")
"44.7 µM"

## Input Value wanted: TGI (A498 renal) of entry `C/C(=N\NS(=O)(=O)c1ccc(C)cc1)c1c(O)cc(C)oc1=O`
## Output > 100 µM

## Input What do you have for COc1ccc(C2SCC(=O)N2NC(=O)C(C)Oc2ccccc2Cl)cc1 (stereo unspecified) ?
## Output 92.2 µM

## Input What do you have for `COc1cc(C)[nH]c(=O)c1CN1CCc2c(Cl)cc([C@H](OC)C3COC3)c(Cl)c2C1=O` ?
## Output > 100 µM

## Input What do you have for `Clc1ccc2c(NCCNc3ccnc4cc(Cl)ccc34)ccnc2c1` ?
## Output 32.2 µM

## Input What do you have for `CN(C)CCNC(=O)c1ccc(NCCCN(C)CCCNc2ccc(C(=O)NCCN(C)C)c3[nH]c4ccc([N+](=O)[O-])cc4c(=O)c23)c2c(=O)c3cc([N+](=O)[O-])ccc3[nH]c12` ?
## Output 0.537 µM

## Input What do you have for `CSc1nc(O)c(/C=C2\C=Nc3ccccc32)[nH]1` ?
## Output > 100 µM

## Input What do you have for `Cc1ccc(O)c(-c2csc(NCN3CCN(CNc4nc(-c5cc(C)ccc5O)cs4)CC3)n2)c1` ?
## Output > 100 µM

## Input What do you have for `CCn1c(-c2ccc(C)cc2)cs/c1=N\C(P(=O)(O)O)P(=O)(O)O` ?
## Output > 100 µM

## Input What do you have for `CN(C)CCCn1c(-c2cc(C(C)(C)C)c(O)c(C(C)(C)C)c2)csc1=Nc1ccccc1` ?
## Output 6.94 µM

## Input What do you have for `C=Cc1cc2c(cc1O)CC[C@@H]1[C@@H]2CC[C@]2(C)[C@@H](O)CC[C@@H]12` ?
## Output 39.1 µM

## Input What do you have for `CC1(C)N=C(/C=N/O)C(C)(C)N1O` ?
## Output > 100 µM

## Input What do you have for N#C/C(=C/C=C/c1ccccc1)S(=O)c1ccccc1 (stereo unspecified) ?
## Output 3.13 µM

## Input What do you have for `CC(C)(C)N1CC(OC(N)=O)C1` ?
## Output > 100 µM

---

- System: U251 CNS
- measurement-notes: NCI tumour cell line growth inhibition, 48 h
Reported TGI values are given for each entry in this list.
Give a bare numeral; the unit µM is implied.

>>> endpoint_result("C#Cc1cccc(Nc2ncnc3ccc(-c4cnc(Cl)c(NS(C)(=O)=O)c4)cc23)c1")
2.68

## Input So what does the record say about TGI for CCCCCCCC(=O)OCC1OC(n2cc(F)c(=O)[nH]c2=O)C(NC(=O)OCc2ccccc2)C(OC(=O)CCCCCCC)C1O (stereo not given) ?
## Output 60.9

## Input What do you have for CCn1cc(C(=O)N/N=C/c2cccc(F)c2)c(=O)c2cc(F)c(N3CCNC(C)C3)c(F)c21 (stereo not given) ?
## Output 3.03

The origin of these recorded values is PubChem BioAssay (NCI).
